Catalogue of compounds with associated inhibition zone (IZ)
tested on: Bacillus subtilis; assay: Antimicrobial activity against Bacillus subtilis at 5 to 10 uL; format: functional
Record the value in mm, omitting the unit from your answer.

Solved entries (count: 4):
{"smiles.representation": "CC[C@@H](C)[C@@H]1NC(=O)[C@H]([C@@H](C)CC)NC(=O)[C@@H]2C[C@@H](O)CN2C(=O)[C@H]([C@H](C)CC)N/C=C(\\C(=O)N2CCC[C@H]2C(=O)N[C@H](C(=O)N[C@H](C(=O)O)[C@@H](C)CC)[C@@H](C)CC)NC(=O)[C@H](CC(C)C)NC(=O)[C@@H]2CCCN2C(=O)[C@@H]2CCCN2C(=O)[C@H](CC(C)C)NC1=O", "reported": 0}
{"smiles.representation": "CC[C@@H]1NC(=O)[C@@H]2C[C@@H](O)CN2C(=O)[C@@H]2CCCN2C(=O)[C@H](Cc2ccccc2)NC(=O)[C@H]([C@H](C)CC)NC(=O)[C@H]([C@H](C)CC)N/C=C(\\C(=O)N2CCC[C@H]2C(=O)N[C@H](C(=O)N[C@@H](CC(N)=O)C(=O)N[C@@H](C)C(=O)N[C@H](C(=O)O)[C@@H](C)CC)[C@@H](C)CC)NC(=O)[C@H](CC(C)C)NC1=O", "reported": 12}
{"smiles.representation": "CC[C@H](C)[C@H](NC(=O)[C@@H](NC(=O)[C@@H]1CCCN1C(=O)/C1=C/N[C@@H](CC(C)C)C(=O)N2CCC[C@H]2C(=O)N[C@@H](Cc2ccccc2)C(=O)N[C@@H](Cc2ccccc2)C(=O)N2CCC[C@H]2C(=O)N2CCC[C@H]2C(=O)N[C@@H](C(C)C)C(=O)N1)[C@@H](C)CC)C(=O)NCC(=O)O", "reported": 15}
{"smiles.representation": "CC[C@H](C)[C@H](NC(=O)[C@H](Cc1ccccc1)NC(=O)[C@H](CC(C)C)NC(=O)[C@@H]1CCCN1C(=O)/C1=C\\N[C@@H](C(C)C)C(=O)N2CCC[C@H]2C(=O)N[C@@H](C(C)C)C(=O)N[C@@H](Cc2ccccc2)C(=O)N2CCC[C@H]2C(=O)N1)C(=O)O", "reported": 0}

// CC[C@@H](C)[C@@H]1NC(=O)[C@H](C(C)C)NC(=O)[C@@H]2C[C@@H](O)CN2C(=O)[C@H]([C@@H](C)CC)N/C=C(\C(=O)N2CCC[C@H]2C(=O)N[C@H](C(=O)N[C@@H](Cc2ccccc2)C(=O)NCC(N)=O)[C@@H](C)CC)NC(=O)[C@H](CC(C)C)NC(=O)[C@@H]2CCCN2C(=O)[C@@H]2CCCN2C(=O)[C@H](CC(C)C)NC1=O : inhibition zone (IZ) value = 0

* * *

test system: Escherichia coli; assay: Antimicrobial activity against Escherichia coli at 5 to 10 uL; assay type: functional
value.kind: inhibition zone (IZ) (mm)
Reply with just the number (in mm).

Hey, Escherichia coli data for CC[C@@H](C)[C@@H]1NC(=O)[C@H]([C@@H](C)CC)NC(=O)[C@@H]2C[C@@H](O)CN2C(=O)[C@H]([C@H](C)CC)N/C=C(\C(=O)N2CCC[C@H]2C(=O)N[C@H](C(=O)N[C@H](C(=O)O)[C@@H](C)CC)[C@@H](C)CC)NC(=O)[C@H](CC(C)C)NC(=O)[C@@H]2CCCN2C(=O)[C@@H]2CCCN2C(=O)[C@H](CC(C)C)NC1=O : inhibition zone (IZ) came out at 7

* * *

Reported inhibition zone (IZ) values for the following compounds.
system: Staphylococcus aureus; test: Antimicrobial activity against Staphylococcus aureus at 5 to 10 uL; format: functional
Note: unit mm is implicit; provide only the numeric part.

{"smiles.representation": "CC[C@@H]1NC(=O)[C@@H]2C[C@@H](O)CN2C(=O)[C@@H]2CCCN2C(=O)[C@H](Cc2ccccc2)NC(=O)[C@H]([C@H](C)CC)NC(=O)[C@H]([C@H](C)CC)N/C=C(\\C(=O)N2CCC[C@H]2C(=O)N[C@H](C(=O)N[C@@H](CC(N)=O)C(=O)N[C@@H](C)C(=O)N[C@H](C(=O)O)[C@@H](C)CC)[C@@H](C)CC)NC(=O)[C@H](CC(C)C)NC1=O", "endpoint.unit": "mm", "inhibition zone (IZ)": 0}
{"smiles.representation": "CC[C@@H](C)[C@@H]1NC(=O)[C@H](C(C)C)NC(=O)[C@@H]2C[C@@H](O)CN2C(=O)[C@H]([C@@H](C)CC)N/C=C(\\C(=O)N2CCC[C@H]2C(=O)N[C@H](C(=O)N[C@@H](Cc2ccccc2)C(=O)NCC(N)=O)[C@@H](C)CC)NC(=O)[C@H](CC(C)C)NC(=O)[C@@H]2CCCN2C(=O)[C@@H]2CCCN2C(=O)[C@H](CC(C)C)NC1=O", "endpoint.unit": "mm", "inhibition zone (IZ)": 9}
{"smiles.representation": "CC[C@H](C)[C@H](NC(=O)[C@H](Cc1ccccc1)NC(=O)[C@H](CC(C)C)NC(=O)[C@@H]1CCCN1C(=O)/C1=C\\N[C@@H](C(C)C)C(=O)N2CCC[C@H]2C(=O)N[C@@H](C(C)C)C(=O)N[C@@H](Cc2ccccc2)C(=O)N2CCC[C@H]2C(=O)N1)C(=O)O", "endpoint.unit": "mm", "inhibition zone (IZ)": 0}

inhibition zone (IZ) on Staphylococcus aureus for CC[C@H](C)[C@H](NC(=O)[C@@H](NC(=O)[C@@H]1CCCN1C(=O)/C1=C/N[C@@H](CC(C)C)C(=O)N2CCC[C@H]2C(=O)N[C@@H](Cc2ccccc2)C(=O)N[C@@H](Cc2ccccc2)C(=O)N2CCC[C@H]2C(=O)N2CCC[C@H]2C(=O)N[C@@H](C(C)C)C(=O)N1)[C@@H](C)CC)C(=O)NCC(=O)O is 9
